The reported measurements were obtained from patent US20240382463A1.

Assay: Hepatocyte stability
Assay type: in vitro ADME
Details: human, hepatocytes; read-out: Hepatocytes stability (t½)
MEASUREMENT_LABEL: half-life (h)
Numbers only, in h.

Task: Give me measured half-life, please, for this compound: O=C(NCCc1cc(C(=O)NO)no1)c1ccc(Cl)c(Cl)c1 [AVS100]
Output: 2.25
